System: HCT-116 colon
PROTOCOL_DETAILS: NCI-60 one-dose screen, 48 h
CONDITION_LABEL: 10 µM unless noted
About 83,000 compounds went through this panel and 20% of them were active in at least one assay; those are over-represented in the sample as a whole. Calls of active or inactive are those of the source. The calls were made as follows: active = growth percent below 10; inactive = the rest.
Output constraint: value belongs to active, inactive

Ask: // outcome(item) with item = CCC(C)C1NC(=O)C(CC(C)C)NC(=O)C(C)NC(=O)C(C(C)C)NC(=O)C(CCCCN)NC(=O)C(CC(C)C)NC(=O)C(C(C)C)NC(=O)[C@H](C)NC(=O)C(C(C)CC)NC(=O)C(CCCN=C(N)N)NC(=O)C(CCCCN)NC(=O)C(CCCN=C(N)N)NC(=O)C(CCCCN)NC(=O)C([C@H](C)CC)NC(=O)C(CCCCN)NC1=O (stereo not given in full)
Reply: active

Ask: Would you mind telling me which call this test gave CCC(C)(C)c1ccc(OCCCCCCN2CCN(c3ccc(C)c(Cl)c3)CC2)cc1 ?
Reply: inactive

Ask: Lab log entry: COc1cc(CCNc2cnc3cc(N)cc(N)c3n2)cc(OC)c1 — outcome as called in the assay?
Reply: inactive

Ask: Record lookup: outcome of this test for Nc1nc2c(c3cnccc13)C(c1ccc(Cl)c(Cl)c1)Cc1cnccc1-2 (stereo not given) ?
Reply: active

Ask: Test call, this compound: COc1cc2c(c3c1c(=O)c1cccc(F)c1n3C)C=CC(C)(C)O2
Reply: inactive

Ask: Called result for COC1=C(OC)C(=O)c2ccccc2C1=O
Reply: inactive

Ask: Hi, sorry to bother you, what did the test record for O=C(Nc1ccc(-n2cc(-c3ccncc3)c(-c3ccc(Cl)c(O)c3)n2)cc1)c1cc(Cl)cc(Cl)c1 ?
Reply: inactive

Ask: Called result for CC1CCCCC[N+]12CCCC2 (stereo not given)
Reply: inactive

Ask: Any idea what this test logged for COc1ccc2nc3cc(Cl)ccc3c(NCCCNC(C)=O)c2c1 ?
Reply: inactive

Ask: In this assay, the call recorded for CC(O)CN(CC(C)O)N(CC(C)O)CC(C)O (stereo not given) was what?
Reply: inactive

Ask: Which result was noted for this compound in the test: CCCCCCC(C(=O)OCC)(C(=O)OCC)C1CCCCCC1
Reply: inactive

Ask: Write down the call the test reported for this compound. Item: O=C1/C(=C\c2cn(-c3nc(N4CCOCC4)nc(N4CCOCC4)n3)c3ccccc23)c2ccccc2N1c1c(Cl)cccc1Cl
Reply: inactive

Ask: Recorded call for COc1cccc(-c2cc(-c3cc4ccccc4oc3=O)nc(N)n2)c1 ?
Reply: inactive

Ask: For CN(CCC#N)c1ccc(/C=C(\C#N)c2cccc(C(F)(F)F)c2)cc1 , what call appears in the results of this test?
Reply: inactive

Ask: Test call, this compound: COC(c1ccccc1)C(Br)C(=O)c1ccccc1 (stereo not given)
Reply: inactive

Ask: Which outcome was entered for the compound CCCCCCCCCCCCOC(=N)N(C)C in this test?
Reply: inactive

Ask: Dear colleague, could you share the recorded outcome for CCOC1=C(Cl)C(=O)C(OCC)=C(Cl)C1=O when you have a moment?
Reply: inactive

Ask: Outcome? Nc1cc(N)c2nc(-c3ccccc3)c(NCCc3ccc(Cl)c(Cl)c3)nc2c1
Reply: active

Ask: Give the logged outcome of this assay for the following compound: O=c1[nH]c2cc(O)ccc2n2cc3c(F)cccc3c12
Reply: inactive

Ask: What did the test return for COC(=O)c1ccc2[nH]c(O)c(C(=Nc3ccc(N(C)C(=O)CN4CCN(C)CC4)cc3)c3cccc(OC)c3)c2c1 ?
Reply: active
